# TARGET DESC: UniProt:P03372
# EXPERIMENT SUMMARY: Agonist activity at human estrogen receptor-alpha by yeast two-hybrid assay in presence of SRC1
PROPERTY NAME: pEC50
Note on pEC50: it is the negative log10 of concentration, concentration in mol/L.

Consider the reported pEC50 for these compounds:
O=C(Cc1ccc(O)cc1)c1ccc(O)cc1O: 5.69
O=C(O)/C=C/c1ccc(O)cc1: 4.79

Then this compound:
query: Tell me the measured pEC50 of CCOC(=O)c1ccc(O)cc1 , please.
result: 4.42

* * *

# TARGET DESC: Estrogen receptor (Homo sapiens, UniProt P03372)
# Sequence (P03372 whole entry): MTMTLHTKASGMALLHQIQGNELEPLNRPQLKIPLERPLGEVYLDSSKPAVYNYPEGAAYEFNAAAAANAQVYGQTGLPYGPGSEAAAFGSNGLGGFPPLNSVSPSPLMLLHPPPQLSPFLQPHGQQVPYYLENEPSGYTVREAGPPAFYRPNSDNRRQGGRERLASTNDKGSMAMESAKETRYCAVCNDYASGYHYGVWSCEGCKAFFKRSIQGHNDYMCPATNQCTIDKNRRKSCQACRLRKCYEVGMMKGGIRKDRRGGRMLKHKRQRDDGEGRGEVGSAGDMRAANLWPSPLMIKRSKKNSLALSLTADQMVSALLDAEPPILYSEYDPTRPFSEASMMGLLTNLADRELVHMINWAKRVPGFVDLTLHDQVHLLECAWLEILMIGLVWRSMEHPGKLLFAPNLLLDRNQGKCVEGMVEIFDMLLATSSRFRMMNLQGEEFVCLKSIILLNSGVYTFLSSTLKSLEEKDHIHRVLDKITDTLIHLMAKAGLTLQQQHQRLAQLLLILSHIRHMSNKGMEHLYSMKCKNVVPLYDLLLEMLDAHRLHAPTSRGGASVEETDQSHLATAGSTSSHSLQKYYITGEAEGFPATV
# EXPERIMENT SUMMARY: Antagonist activity at human estrogen receptor-alpha by yeast two-hybrid assay in presence of SRC1
pEC50: −log10 of the molar value.
Binary classification by pEC50, with 5 as an inclusive lower bound for True; all other cases are False.

C=C(C)[C@@H]1[C@@H]2O[C@@H]2[C@@H]2[C@]3(CC[C@]4(C)[C@@H]([C@H](C)CC/C=C(\C)C(=O)O)CC[C@@]24C)C[C@]13CCC(=O)O: True

As a next step, examine the molecule that follows.
query: Tell me whether pEC50 is at least 5 here: C=CCc1ccc(OC)c(-c2cc(C=O)cc(O)c2O)c1
result: False

* * *

So I've got pEC50 readings for Estrogen receptor beta (Homo sapiens, UniProt Q92731), take a look.
Note on pEC50: it is the negative log10 of concentration, concentration in mol/L.

CC(C)(O)c1ccc2c(c1)C(=O)C[C@H]1[C@@](C)(C(=O)O)CCC[C@]21C: 5.37
C=C(C)[C@@H]1[C@H](O)C[C@@H]2[C@]3(CC[C@]4(C)[C@@H]([C@H](C)CC/C=C(\C)C(=O)O)CC[C@@]24C)C[C@]13CCC(=O)O: 4.47
C/C(=C/C(=O)C[C@@H](C)[C@]1(C)CC[C@@]2(C)C3=CCC4C(C)(C)[C@H](O)CC[C@]4(C)[C@@H]3CC=C21)C(=O)O (stereo partly drawn): 4.75
C=CCc1ccc(OC)c(-c2cc(C=O)cc(O)c2O)c1: 4.31
C=C(C)[C@@H]1[C@H](O)C[C@@H]2C(=CC[C@]3(C)[C@@H]([C@H](C)CC/C=C(\C)C(=O)O)CC[C@@]23C)[C@@]1(C)CCC(=O)O: 4.60

query: Can you look up pEC50 on Estrogen receptor beta (Homo sapiens, UniProt Q92731) for C/C(=C/C(=O)C[C@@H](C)[C@]1(C)CC[C@@]2(C)C3=CCC4C(C)(C)C(=O)CC[C@]4(C)[C@@H]3CCC21)C(=O)O (stereo partly drawn) ?
result: 5.56

query: Can you look up pEC50 on Estrogen receptor beta (Homo sapiens, UniProt Q92731) for C=C(C)[C@@H]1[C@@H]2O[C@@H]2[C@@H]2[C@]3(CC[C@]4(C)[C@@H]([C@H](C)CC/C=C(\C)C(=O)O)CC[C@@]24C)C[C@]13CCC(=O)O ?
result: 5.33

query: Can you look up pEC50 on Estrogen receptor beta (Homo sapiens, UniProt Q92731) for C=C(C)[C@@H]1[C@H](O)C[C@@H]2C(=CC[C@]3(C)[C@@H]([C@H](C)CC/C=C(\C)C(=O)OC)CC[C@@]23C)[C@@]1(C)CCC(=O)O ?
result: 4.14

* * *

Quick reference for pEC50 among some compounds
# TARGET DESC: Estrogen receptor (Homo sapiens, UniProt P03372)
# Sequence (P03372 whole entry): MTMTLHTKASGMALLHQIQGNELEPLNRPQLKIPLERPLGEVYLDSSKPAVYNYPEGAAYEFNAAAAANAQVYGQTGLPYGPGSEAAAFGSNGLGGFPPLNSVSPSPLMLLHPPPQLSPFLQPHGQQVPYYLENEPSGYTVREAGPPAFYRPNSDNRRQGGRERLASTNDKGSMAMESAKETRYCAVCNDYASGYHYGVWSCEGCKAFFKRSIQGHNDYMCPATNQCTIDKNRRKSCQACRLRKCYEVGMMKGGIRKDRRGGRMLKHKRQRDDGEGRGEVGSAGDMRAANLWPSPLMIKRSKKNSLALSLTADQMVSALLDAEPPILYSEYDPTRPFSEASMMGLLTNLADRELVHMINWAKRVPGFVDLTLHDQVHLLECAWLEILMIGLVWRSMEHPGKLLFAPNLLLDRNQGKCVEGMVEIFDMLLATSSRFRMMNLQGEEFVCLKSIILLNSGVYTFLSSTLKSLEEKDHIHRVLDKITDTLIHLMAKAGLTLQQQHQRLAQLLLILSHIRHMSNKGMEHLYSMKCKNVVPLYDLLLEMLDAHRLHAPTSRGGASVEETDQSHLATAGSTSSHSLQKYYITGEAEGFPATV
# EXPERIMENT SUMMARY: Antagonist activity at human estrogen receptor-alpha by yeast two-hybrid assay in presence of SRC1
Note on pEC50: it is the negative log10 of concentration, concentration in mol/L.

Consider the reported pEC50 for these compounds:
C/C(=C/C(=O)C[C@@H](C)[C@]1(C)CC[C@@]2(C)C3=CCC4C(C)(C)[C@H](O)CC[C@]4(C)[C@@H]3CC=C21)C(=O)O (stereo partly drawn): 4.90
C/C(=C/C(=O)C[C@@H](C)[C@]1(C)CC[C@@]2(C)C3=CCC4C(C)(C)C(=O)CC[C@]4(C)[C@@H]3CCC21)C(=O)O (stereo partly drawn): 5.08

Then this compound:
query: Tell me the measured pEC50 of CC(C)(O)c1ccc2c(c1)C(=O)C[C@H]1[C@@](C)(C(=O)O)CCC[C@]21C , please.
result: 5.09
